Source of measurements: the NIST ThermoML archive (doi:10.1016/j.jct.2009.06.003)

conditions: Crystal; DTA
Returns one of YES or NO; YES when Normal melting temperature is >= 60 °C.

Challenge: Could you tell me if the measured Normal melting temperature of `CCCC[n+]1ccc(C)cc1.O=S(=O)([N-]S(=O)(=O)C(F)(F)F)C(F)(F)F` reaches 60 °C or more?
Response given: NO

Challenge: Could you tell me if the measured Normal melting temperature of CCCCCC[n+]1cccc(C)c1.Cc1ccc(S(=O)(=O)[O-])cc1 [1-hexyl-3-methylpyridinium 4-methylbenzenesulfonate] reaches 60 °C or more?
Response given: NO

Challenge: Could you tell me if the measured Normal melting temperature of CCCC[n+]1cccc(C)c1.Cc1ccc(S(=O)(=O)[O-])cc1 [1-butyl-3-methylpyridinium 4-methylbenzenesulfonate] reaches 60 °C or more?
Response given: NO

Challenge: Could you tell me if the measured Normal melting temperature of Cc1cc[n+](C)cc1.Cc1ccc(S(=O)(=O)[O-])cc1 [1,4-dimethylpyridinium 4-methylbenzenesulfonate] reaches 60 °C or more?
Response given: YES

Challenge: Could you tell me if the measured Normal melting temperature of Cc1cc(C)[nH+]c(C)c1.Cc1ccc(S(=O)(=O)[O-])cc1 [2,4,6-trimethylpyridinium 4-methylbenzenesulfonate] reaches 60 °C or more?
Response given: YES

----------
conditions: Glass; DTA
Numbers after ± are expanded uncertainties.
Value type: Glass transition temperature
Answer format: number, then unit.

Challenge: Request the reported Glass transition temperature associated with CCCC[n+]1cccc(C)c1.Cc1ccc(S(=O)(=O)[O-])cc1 [1-butyl-3-methylpyridinium 4-methylbenzenesulfonate]
Response given: -53.0 ± 2 °C

Challenge: Request the reported Glass transition temperature associated with Cc1cc(C)[nH+]c(C)c1.Cc1ccc(S(=O)(=O)[O-])cc1 [2,4,6-trimethylpyridinium 4-methylbenzenesulfonate]
Response given: -7.8 ± 2 °C

Challenge: Request the reported Glass transition temperature associated with `CCCC[n+]1ccc(C)cc1.O=S(=O)([N-]S(=O)(=O)C(F)(F)F)C(F)(F)F`
Response given: -77.2 ± 2 °C

----------
Exercise: for every item that follows, state its recorded Molar enthalpy of transition or fusion.
experiment: Molar enthalpy of transition or fusion; conditions: Crystal; DSC
Answer format: number, then unit.

Challenge: Request the reported Molar enthalpy of transition or fusion associated with Cc1cc(C)[nH+]c(C)c1.Cc1ccc(S(=O)(=O)[O-])cc1 [2,4,6-trimethylpyridinium 4-methylbenzenesulfonate]
Response given: 5.47 kcal/mol

Challenge: Request the reported Molar enthalpy of transition or fusion associated with Cc1cc[n+](C)cc1.Cc1ccc(S(=O)(=O)[O-])cc1 [1,4-dimethylpyridinium 4-methylbenzenesulfonate]
Response given: 7.38 kcal/mol

Challenge: Request the reported Molar enthalpy of transition or fusion associated with CCCCCC[n+]1cccc(C)c1.Cc1ccc(S(=O)(=O)[O-])cc1 [1-hexyl-3-methylpyridinium 4-methylbenzenesulfonate]
Response given: 2.41 kcal/mol

Challenge: Request the reported Molar enthalpy of transition or fusion associated with `CCCC[n+]1ccc(C)cc1.O=S(=O)([N-]S(=O)(=O)C(F)(F)F)C(F)(F)F`
Response given: 5.24 kcal/mol

Challenge: Request the reported Molar enthalpy of transition or fusion associated with CCCC[n+]1cccc(C)c1.Cc1ccc(S(=O)(=O)[O-])cc1 [1-butyl-3-methylpyridinium 4-methylbenzenesulfonate]
Response given: 0.366 kcal/mol

----------
settings: Glass; DTA
Exercise: for every item that follows, state its recorded Glass transition temperature.
# output: bare number, implied unit °C

Challenge: Request the reported Glass transition temperature associated with CC[S+](CC)CC.O=S(=O)([N-]S(=O)(=O)C(F)(F)F)C(F)(F)F [triethylsulfonium bis((trifluoromethyl)sulfonyl)imide]
Response given: -73.8

Challenge: Request the reported Glass transition temperature associated with CCCCCC[n+]1cccc(C)c1.Cc1ccc(S(=O)(=O)[O-])cc1 [1-hexyl-3-methylpyridinium 4-methylbenzenesulfonate]
Response given: -39

Challenge: Request the reported Glass transition temperature associated with CCn1cc[n+](C)c1.N#C[S-] [1-ethyl-3-methylimidazolium thiocyanate]
Response given: -97.5

Challenge: Request the reported Glass transition temperature associated with CCCCCCn1cc[n+](C)c1.N#C[S-] [1-hexyl-3-methylimidazolium thiocyanate]
Response given: -83.2
